Target: T1, cyno CD137 (cynomolgus monkey, UniProt Q07011 24-186 (human entry), limits assumed)
T1 construct: also called cynomolgus monkey CD137
T1 chain: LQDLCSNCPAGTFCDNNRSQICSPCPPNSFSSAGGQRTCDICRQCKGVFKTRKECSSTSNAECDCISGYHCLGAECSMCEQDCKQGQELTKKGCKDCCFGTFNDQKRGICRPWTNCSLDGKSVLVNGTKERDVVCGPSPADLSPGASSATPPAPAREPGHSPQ
Assay: SPR Biacore T200, IgG captured on protein A, 25 C;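 further: antigens diluted in ACES running buffer at pH 7.4 were flowed over antibodies held on a CM3 chip bearing amine-coupled protein A, with buffer alone serving as blank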
measured quantity: koff (s⁻¹)
Number in s⁻¹, nothing else.

1) dBBDu186/L106 (antibody, V domains shown, IgG format; constant regions not specified) VH: QVQLVESGGGLVQPGRSLRLSCAASGFTFSNAWMHWVRQAPGKGLEWVAQIKDRSNQYATYYAPSVKGRFTISRDDSKNSIYLQMNSLKTEDTAVYYCHYVHYAQASTVLPAFGVDAWGQGTTVTVSS VL: DIVMTQSPLSLPVTPGEPASISCSTSEELLHINRFIFLHWYQQKPGQAPRLLIYKVANRFMGVPDRFSGSGSGTDFTLKISRVEAEDVGVYYCAQGSQVPFTFGQGTKLEIK	0.00126

Supply koff value. Item: dBBDu189/L126 (antibody, V domains shown, IgG format; constant regions not specified) VH: QVQLVESGGGLVQPGRSLRLSCAASGFTFSNAWMHWVRQAPGKGLEWIAQIKDRSNQYATYYAPSVKGRFTISRDDSKNSIYLQMNSLKTEDTAVYYCHYVHYAQASSLLPSFGVDAWGQGTTVTVSS VL: DIVMTQSPLSLPVTPGEPASISCRTSEELLHINRYIFLHWYQQKPGQAPRLLIYKVQNRFSGVPDRFSGSGSGTDFTLKISRVEAEDVGVYYCAQGSAVPFTFGQGTKLEIK
0.00247

Supply koff value. Item: dBBDu183/L072 (antibody, V domains shown, IgG format; also called H183L072) VH: QVQLVESGGGLVQPGRSLRLSCAASGFTFSNAWMHWVRQAPGKGLEWVAQIKDKGNAYAAYYAPSVKGRFTISRDDSKNSIYLQMNSLKTEDTAVYYCHYVHYASASTVLPAFGVDAWGQGTTVTVSS VL: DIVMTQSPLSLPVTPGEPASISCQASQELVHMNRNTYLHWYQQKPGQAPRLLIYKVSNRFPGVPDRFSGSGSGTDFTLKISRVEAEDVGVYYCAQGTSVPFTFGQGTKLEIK
0.00593
